- Tested target: T1, CD123 Protein, His Tag, Acro Biosciences Cat. No. ILA-H52H6 (Homo sapiens (Human), UniProt P26951 19-305)
- T1 construct: Bought protein; not shown: His tag
- T1 sequence: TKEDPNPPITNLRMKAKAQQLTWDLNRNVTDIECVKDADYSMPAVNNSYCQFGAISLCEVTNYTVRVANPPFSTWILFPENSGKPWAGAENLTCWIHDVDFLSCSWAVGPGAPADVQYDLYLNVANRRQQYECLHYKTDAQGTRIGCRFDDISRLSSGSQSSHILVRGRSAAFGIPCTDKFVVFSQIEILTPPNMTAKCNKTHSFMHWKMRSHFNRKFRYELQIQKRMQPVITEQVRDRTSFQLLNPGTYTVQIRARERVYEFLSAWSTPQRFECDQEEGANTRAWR
- Test summary: BLI, IgG on anti-human Fc sensor, 50 nM CD123, pH 7.4 and pH 5.4
Assay metric: binding result

# Binder, Assay metric, Recorded value
measured = [
    ("MYT1263 (antibody, V domains shown, IgG) VH: QVQLVQSGAEVKKPGASVKVSCKASGYIFTSSIMHWVRQAPGQGLEWIGYHKPYNDGTKYNEKFKGRATLTSDRSTSTAYMELSSLRSEDTAVYYCAREGGNDYYDTMDYWGQGTLVTVSS VL: DIQMTQSPSSLSASVGDRVTITCRASQDINSYLSWFQQKPGKAPKTLIYRVNRLVDGVPSRFSGSGSGNDYTLTISSLQPEDFATYYCLQYDAFPYTFGQGTKVEIK", "binding result", "binds"),
    ("MYT2799 (antibody, V domains shown, IgG) VH: QVQLVQSGAEVKKPGASVKVSCKASGYIFTSSIMHWVRQAPGQGLEWIGYIKPYNDGTKYNEKFKGRATLTSDRSTSTAYMELSSLRSEDTAVYYCAREGGNDYYDTMDYWGQGTLVTVSS VL: DIQMTQSPSSLSASVGDRVTITCRASQDINSYLSWFQQKPGKAPKTLIYRVNRLVDGVPSRFSGSGSGNDYTLTISSLQPEDFATYYCLQYDAFPYHFGQGTKVEIK", "binding result", "binds"),
    ("MYT1256 (antibody, V domains shown, IgG) VH: QVQLVQSGAEVKKPGASVKVSCKASGYIFHSSIMHWVRQAPGQGLEWIGYIKPYNDGTKYNEKFKGRATLTSDRSTSTAYMELSSLRSEDTAVYYCAREGGNDYYDTMDYWGQGTLVTVSS VL: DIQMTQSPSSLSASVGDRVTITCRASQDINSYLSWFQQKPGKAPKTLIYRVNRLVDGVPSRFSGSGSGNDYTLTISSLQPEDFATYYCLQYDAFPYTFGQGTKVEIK", "binding result", "binds"),
    ("MYT1273 (antibody, V domains shown, IgG) VH: QVQLVQSGAEVKKPGASVKVSCKASGYIFTSSIMHWVRQAPGQGLEWIGYIKPYNDGTKYHEKFKGRATLTSDRSTSTAYMELSSLRSEDTAVYYCAREGGNDYYDTMDYWGQGTLVTVSS VL: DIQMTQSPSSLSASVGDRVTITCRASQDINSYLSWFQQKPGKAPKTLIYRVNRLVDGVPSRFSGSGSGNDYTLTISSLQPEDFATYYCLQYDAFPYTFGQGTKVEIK", "binding result", "binds"),
]

Please supply the value of reported binding result for the item MYT1445 (antibody, V domains shown, IgG) VH: QVQLVQSGAEVKKPGASVKMSCKASGYTFTDYYMKWVKQAPGQGLEWIGDIIPSNGATFYNQKFKGKATLTVDRSISTAYMHLNRLRSDDTAVYYCTRSHHLRASWFAYWGQGTLVTVSS VL: DFVMTQSPDSLAVSLGERATINCKSSQSLLNSGNQKNYLTWYLQKPGQPPKLLIYWASTRESGVPDRFSGSGSGTDFTLTISSLQAEDVAVYYCQNDYSYPYTFGQGTKLEIK
binds

The reported measurements were obtained from patent US20220306751A1.
